Test system: MS2 coat protein
assay.text: apparent Kd, MS2 coat protein; higher = weaker binding; RNA-MaP array; theophylline 2 mM where present
measurement.parameters: designed as: ON switch for theophylline; no ligand
Label rule, in plain words: apparent Kd of 100 nM and up is yes, under 100 nM is no.

INSERT INTO measurements (sequence_string, qualitative_label) VALUES
  ('UUCUACAUGAGGAUCACCCAUGUGGGUGAUACCAGCACUUUUUGGUGCCCUUGGCAGCACAUGAGAAUACCGUACGAUCGGCGAU', 'yes'),
  ('UUUGAUAUGACAGAUACCAGCGUGUUGUUGAACAUGAGGAUCACCCAUGUAGUGAUCAAGCGCCCUUGGCAGCUGGUGUGUUAGG', 'yes'),
  ('AGAUUACAUGUUUUAAUACGGAAAACUGAUACCAGUGUAUCUAUUCACCCUUGGCAGCAGCAACAUGAGGAUCACCCAUGUAUUA', 'no'),
  ('CCUGCGUUUCUUUUCUUUCGCAGGAAUGAUACCAGUAGGGAAACCUACCCUUGGCAGCAUGGGACAUGAGGAUCACCCAUGUUAU', 'yes'),
  ('ACAUGAGGAUCACCCAUGUCUGCCACUGAUACCAGCGGAAGCCCACGCCCUUGGCAGCAGAACAUGAGGAUCACCCAUGUAGGCU', 'yes'),
  ('AUCGUACCUGGUGAUACCAGCAAGUGAUUAUAACAUGAGGAUCACCCAUGUAAUCAGUGAUGCCCUUGGCAGCAUAAUCGGUACA', 'no'),
  ('UUAGAUAUGACAGAUACCAGCGUGUUAUAAAACAUGAGGAUCACCCAUGUAGUGAUCGAGCGCCCUUGGCAGCUGGUGUGUUUGG', 'no'),
  ('AUUCAUAAUUGGGUAAAUGGAUAGAGUGAUACCAGUCAUAUACAUGACCCUUGGCAGCACAAGGACAUGAGGAUCACCCAUGUCA', 'no'),
  ('AGUGUUAUAACUGAUACCAGACUUUUGCUUAUACAUGAGGAUCACCCAUGUAAAAUGGUUGUCCCUUGGCAGCAGAAGUUACACA', 'no'),
  ('AGUACUCGAACGGAUACCAGCCGGACAUGAGGAUCACCCAUGUCCUACCAUGUCUCGGUUGGCCCUUGGCAGCCGUUCGUGUACA', 'no'),
  ('CGAAUACGAAUUGAUACCAGCAUGUUAACAUGAGGAUCACCCAUGUUAAGGAUAACAUAAUGCCCUUGGCAGCAACGUAAAUUCG', 'no');

###

Test system: MS2 coat protein
assay.text: apparent Kd, MS2 coat protein; higher = weaker binding; RNA-MaP array; FMN 200 µM where present
measurement.parameters: designed as: OFF switch for flavin mononucleotide; no ligand
Classify as follows. Reported apparent Kd greater than or equal to 40 nM: Y. Reported apparent Kd below: N.

INSERT INTO results (sequence_string, qualitative_label) VALUES
  ('GAGAAGAGGGAAGGAUAUACAUGAGGAUCACCCAUGUAGAUAGGUUUAAUAGGUUGUUGUAGUUUGUAGAAGGUCCGGUUUGUU', 'N'),
  ('ACAUGAGGAUCACCCAUGUACAUGGGUUUAAUUGUGUGUUACUAGGAUAUGUAUUUGAAUUUACAACAGAAGGAGUAUUACUGU', 'Y'),
  ('CGUAUCGAAGAAGGAUAUCGCAACGACAGCUAGGGCUAUUCUCAACAUGAGGAUCACCCAUGUUGCGAGAAGGUCUGCUAUGCG', 'N'),
  ('GUGACUUAUAGAGGAUAUUGACAUGAGGAUCACCCAUGUAUUUGGGAGUGUUCACUGAAUUCUUACGAGAAGGCUAUAAGACAC', 'Y'),
  ('UAUAUAUAGUAAGGAUAUGUAUUUAUUUUAUUAACAGAAGGUACUGACAUGAGGAUCACCCAUGUUUUAGUGUGGGCAUGUAGA', 'Y'),
  ('UAUUAAUACGAAGGAUAUGGUUACAUGAGGAUCACCCAUGUAUGUAUUUUGAUCUAAUUAUUUAACCAGAAGGUCGAAUAUAAA', 'N'),
  ('CUGACGUCAGGAUAUCUGAUGUCUAACUUCGGUUAGACAUCAGAGAAGGGACAUGAGGAUCACCCAUGUCAGAA', 'N');

###

Test system: MS2 coat protein
assay.text: apparent Kd, MS2 coat protein; higher = weaker binding; RNA-MaP array; FMN 200 µM where present
measurement.parameters: designed as: ON switch for flavin mononucleotide; no ligand
Documented apparent Kd across a set of sequences
parameter: apparent Kd (nM)

INSERT INTO assay_data (sequence_string, assay_value) VALUES
  ('CGCAAGUAUACAUGAGGAUCACCCAUGUUUGAUAGGGUUUUCAGAAGGUACAAUUAGAGAUAGAGUAAGGAUAUGAAAUUUGCG', 125),
  ('UCGUACAUUCGAGGAUAUCGGUGAUAUAUAUUACGAGAAGGCGAUUGUUUGUUUUACGCCUUAGACAUGAGGAUCACCCAUGUA', 77.7),
  ('UUUUAAUAAGAGAAGGAGCACUUCAUGAGGAUCACCCAUGUGUUAGUAGUUAGGAUAUUUAAUAACAUGAGGAUCACCCAUGUC', 159),
  ('UUGCAGUGCGGGUAGGAUAUGUAGGGUGGUACAUGAGGAUCACCCAUGUGUCCACCCUUCUUCCGGCAGAAGGGCCUGUCACUGC', 15.2),
  ('AAUCGGGAGCAGAAGGCAUGUAAUAAGACAUGAGGAUCACCCAUGUAGUUAAGGCGAAAGCCGCAUGAGGAUAUGCUCCCGUAA', 5.26),
  ('CUGAUUAUACAAGGAUAUCUUUUGUUGUUUCGACUUACAUGAGGAUCACCCAUGUUAAUAUUUUUAGAGAAGGUGUAUUUUCAG', 16.8),
  ('UUGGACGUCGUAGGAUAUGUAGGAUAUUCCUACAUGAGGAUCACCCAUGUUGACAUGGAAGAAGGACAGAGGGACGAUGUCCAU', 454),
  ('AAGUCACAUGAGGAUCACCCAUGUCGUAAACGAUGAGGAUAUAGGAACGAAAGAAAAAAACUAGAAGGUAUAACAA', 52.2),
  ('AUAUAUACCCAGAAGGUGCCAGCGAGAGCUGCACAUGAGGAUCACCCAUGUUGUCGGUGACGACGCAAGGAUAUGGGUAUAUAU', 25.2),
  ('GACGGGCAGCUCGUGAUCCCAUCGCCAGAAGGGCCACAUGAGGAUCACCCAUGUCGUAAAACAAGGCAGGAUAUGGCAGGGAAC', 9.93),
  ('GUGGUCAGACAUGAGGAUCACCCAUGUGGAAUAAAUAACAGACAGGAUAUUAAAUAUAGGAUAUAUAAGAAGGGUCGAUUGGUG', 91.1),
  ('AAGCGAGGGACAGGAUAUGCGGCGAAAUUCUCCGCAGAAGGGUCGACAUGAGGAUCACCCAUGUCCUUACGCUCCAAGUAGAGG', 324),
  ('CGCAAACAUGAGGAUCACCCAUGUCAAUGUGAUCAAGGAUAUGGGUUCCUAAACGGAACACCAGAAGGUGAGUAGA', 85.2),
  ('AGUGUCAUCGAGAAGGCCUCAACAUGAGGAUCACCCAUGUUGUAAUAUGGGAGGAUAUCGAUGAUACAGCUACGUUUCGUAGCC', 19.5),
  ('AGUAACAUACUCAACAUGAGGAUCACCCAUGUACUCUCAUGUAAGGAUAUACAAUCGUAUUGAUAGUAGAAGGUACCAAUUAAG', 845),
  ('GUGGUCAGACAUGAGGAUCACCCAUGUGGAAUAAAUAAGGACUAGGAUAUGGAAUAUAGGAUAUACCAGAAGGAGUGGUUGGUG', 56.4);

###

Tested on: MS2 coat protein
assay.text: apparent Kd, MS2 coat protein; higher = weaker binding; RNA-MaP array
measurement.parameters: ligand present: flavin mononucleotide; designed as: OFF switch for flavin mononucleotide
parameter: apparent Kd (µM)

INSERT INTO measurements (sequence_string, assay_value) VALUES
  ('AACGUACAUGAGGAUCACCCAUGUGAGGAUAUGCCUAAAGAGUUCUAAGCAUCCAAGGGCAGAAGGCACAUGAA', 0.14),
  ('AAAGACGACCAGAAGGAGCCGCCACAUGAGGAUCACCCAUGUAUGCAAAGAUAACUGGGUUAACGCUAGGAUAUGGUGGAGAAA', 0.0441),
  ('ACACCUCACGGAAUACAUGAGGAUCACCCAUGUUGGGAAGGAAGAAGGUUCCGUGUUGAUUGCUGAAAGGAUAUUCGUGACCCG', 0.153),
  ('UACAUUAUAGAGAAGGAUUACUCACACAUGAGGAUCACCCAUGUGUCCAUCAUGGCUGUAGGUUAAUAGGAUAUCUUAGAAGUG', 0.155),
  ('GAUAGGUGAGGAUAUGUGAGUGAUCACAUGAGGAUCACCCAUGUUGACUCAUGUUGGCUUACAGAAGGCACAGGAA', 0.0972),
  ('UAGUAACAUGAGGAUCACCCAUGUGAGGAUAUCUGGCUAGGCUAAAGCAGAGAAACCAAGAGAAGGCACGGGAU', 0.0208),
  ('CAAGGGAAUACAGGAUAUUGCUGGAGUUGGGCGAGACAUGAGGAUCACCCAUGUUAUGCUAUAGUCAAGAAGGGUAUCUCGAGG', 0.013),
  ('ACCGUGUCAGGAUAUCGGGUAUUCUUCCGUAUAAUACCAGCCGAGAAGGGACAUGAGGAUCACCCAUGUGGACA', 0.0578),
  ('CAUGUGUAAGGAUAUGCGUCGAUAUCAACUAACUAUAUGAUGCAGAAGGUACAUGAGGAUCACCCAUGUGAACU', 0.118),
  ('AUAAAGGAAGGAUAUACAUGAGGAUCACCCAUGUUGAAAUACAGAAAAGGAGAAACAAGUAGAAGGACCGAUGU', 0.0116),
  ('CCAUGAAGCGAGGAUAUUCUCACUGCCAAGUUGGAAGAAGGCGCUACAUGAGGAUCACCCAUGUAGUCAGUCCG', 0.00532),
  ('ACUUACGGAAAGAAGGAGGGACAGUCACGGCGGGCGGACCACAUGAGGAUCACCCAUGUGCGAGCCUAGGAUAUUUAGGGUAGC', 0.00723),
  ('UAAGUUUUAGAGAAGGCCUGGAAUUGCUGUGCAGGAGGAUAUCUGGGACAUGAGGAUCACCCAUGUAGCCGCUAAGCGUAAGGG', 0.0831),
  ('GAUUGCGGUGUGAGGAUAUCUGUUUAACAAAAGCCAGAGAAGGCACAUGAGGAUCACCCAUGUAGAUGCCGGCC', 0.0105),
  ('UUUACACACUCAGGAUAUGAAUUCAAUUUAUCGGGCCGCUAACAUGAGGAUCACCCAUGUAACAUUCAGAAGGGAGAAGAGCCA', 0.0137);
